# experimentalSystem: Cannabinoid receptor 1 (Homo sapiens)
# Sequence (P21554 whole entry): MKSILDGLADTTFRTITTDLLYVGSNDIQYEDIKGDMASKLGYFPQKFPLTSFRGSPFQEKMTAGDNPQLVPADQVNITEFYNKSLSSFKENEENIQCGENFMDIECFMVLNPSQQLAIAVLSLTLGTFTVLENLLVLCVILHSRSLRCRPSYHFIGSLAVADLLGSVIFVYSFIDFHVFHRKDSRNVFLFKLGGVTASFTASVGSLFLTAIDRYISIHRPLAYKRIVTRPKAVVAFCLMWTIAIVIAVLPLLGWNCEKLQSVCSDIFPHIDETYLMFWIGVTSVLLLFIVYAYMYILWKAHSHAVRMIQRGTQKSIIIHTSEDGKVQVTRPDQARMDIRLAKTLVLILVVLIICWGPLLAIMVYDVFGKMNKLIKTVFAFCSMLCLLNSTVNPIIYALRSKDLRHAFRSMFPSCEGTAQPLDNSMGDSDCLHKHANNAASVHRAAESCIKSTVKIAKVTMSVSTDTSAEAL
# testDetails: Displacement of [3H]SR141716A from human CB1 receptor expressed in CHO cells at 10 uM
# Format: cell-based
Please respond with reported Activity for every item in the list.
Kindly provide the numeric value in % only, without the unit symbol.

IN: Please look up its Activity: O=C1C(c2ccc(Cl)cc2)N(c2ccccc2)C(=O)N1c1ccccc1 (centres undefined)
OUT: 60.2

IN: Please look up its Activity: O=C1C(c2ccc(Br)cc2)N(c2ccc(Cl)cc2)C(=O)N1c1ccc(Cl)cc1 (centres undefined)
OUT: 79.1

IN: Please look up its Activity: Cc1ccc(N2C(=O)C(c3ccccc3)N(c3ccc(C)cc3)C2=S)cc1 (centres undefined)
OUT: 80.1

IN: Please look up its Activity: O=C1C(c2ccccc2)N(c2cccc(I)c2)C(=S)N1c1cccc(I)c1 (centres undefined)
OUT: 81.2

IN: Please look up its Activity: O=C1C(c2ccccc2)N(c2ccccc2)C(=S)N1c1ccccc1 (centres undefined)
OUT: 61.7

IN: Please look up its Activity: O=C1C(c2ccc(Cl)cc2)N(c2ccc(Cl)cc2)C(=O)N1c1ccc(Cl)cc1 (centres undefined)
OUT: 71.6
